B1: PhoQ; a variant is named by its letters at X, in order, P23837 (parent)
chain: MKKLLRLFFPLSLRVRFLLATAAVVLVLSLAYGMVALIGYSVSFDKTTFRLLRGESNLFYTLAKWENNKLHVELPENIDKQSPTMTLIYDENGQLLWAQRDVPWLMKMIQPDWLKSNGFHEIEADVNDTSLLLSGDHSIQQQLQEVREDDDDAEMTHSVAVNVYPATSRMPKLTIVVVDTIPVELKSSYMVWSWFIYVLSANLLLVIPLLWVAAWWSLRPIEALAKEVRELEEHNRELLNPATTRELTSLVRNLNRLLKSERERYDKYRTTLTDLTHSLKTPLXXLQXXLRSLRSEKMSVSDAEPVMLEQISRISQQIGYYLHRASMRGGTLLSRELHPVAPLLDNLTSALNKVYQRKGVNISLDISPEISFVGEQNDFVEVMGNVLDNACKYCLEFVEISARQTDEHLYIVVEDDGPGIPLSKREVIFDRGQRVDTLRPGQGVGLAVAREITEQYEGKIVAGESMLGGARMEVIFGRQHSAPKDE

- Variants of: B1
- experimental_details: enrichment ratio after two sorts for PhoP signalling (ratio (wild type AVST 3.29)); higher = more functional
- condition_label: with PhoP (E. coli)
In all, about 140,000 sequences were measured (“enrichment ratio after two sorts for PhoP signalling”: median about 0, highest 2% from about 11 on). For the sample, the highest values were picked, then their nearest neighbours and some sequences at random.
endpoint_label: enrichment ratio

# variant_notation, enrichment ratio
measured = [
    ("ATPW", "≤ 0.25"),
]

Next item in the queue.
### Prompt Check the records and state enrichment ratio for ATHW
### Response ≤ 0.25
